B1: HDV Ribozyme (parent)
chain: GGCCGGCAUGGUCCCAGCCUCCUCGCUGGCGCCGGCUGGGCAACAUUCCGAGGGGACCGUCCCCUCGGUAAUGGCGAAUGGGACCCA

- Variants of: B1
- Test Method Notes: self-cleavage, relative activity (ratio to wild type); higher = more cleavage; co-transcriptional
Consider the following partition of reported self-cleavage into named classes: LOW (below 0.2), MID (0.2 to below 0.8), HIGH (0.8 or more)

Observe how each entry below is paired with its result.
1. G81C A87G	MID
2. C18A C44A	LOW
3. G38A C61U	LOW
4. G40U G76C	MID
5. U65A C75U	MID
6. A45G C64U	HIGH
7. C21U G25U	LOW
8. A78C C84G	LOW

Which band does U69C A87C fall in? HIGH

Which band does G50U U60C fall in? HIGH

Which band does C14U C85A fall in? HIGH

Which band does A43C C85A fall in? MID

Which band does U65C C84A fall in? MID

Which band does A42C A51C fall in? LOW
